# target.of.assay: PDEV (Oryctolagus cuniculus)
# test.details: PDE assay: inhibition of PDEV isolated from rabbit tissue
# condition.info: PDEV inhibitory activity, rabbit tissue (footnote a)
Where a name gives a salt, the structure may show the parent alone.
Kindly state IC50 for each of the entries shown.
Report as a plain number; the unit nM is understood.

Enquiry: Name the recorded IC50 of the compound listed here: `O=c1c2c([nH]c3ccccc13)[C@@H](c1ccc3c(c1)OCO3)N(c1ccc(-c3cccc(C(F)(F)F)c3)o1)C2`
Return: 0.61

Enquiry: Name the recorded IC50 of the compound listed here: O=C(OCc1ccccc1)N1Cc2c(nc3ccccc3c2O)C1c1ccc2c(c1)OCO2 (racemic)
Return: 3.4

Enquiry: Name the recorded IC50 of the compound listed here: O=C(c1cc2ccc(OCCN3CCOCC3)cc2o1)N1Cc2c([nH]c3ccccc3c2=O)C1c1ccc2c(c1)OCO2 (racemic) [Compound 49, hydrochloride salt]
Return: 1.13

====

# target.of.assay: PDEV (Homo sapiens, UniProt O76074)
# Construct: PDEV was isolated from rabbit and human tissues according to the protocol described by Boolell et al
# test.details: PDE assay: inhibition of PDEV isolated from human tissue
# condition.info: PDEV inhibitory activity
experimental.endpoint: IC50 (nM)
Report as a plain number; the unit nM is understood.

Enquiry: Name the recorded IC50 of the compound listed here: Nc1ccc(-c2ccc(C(=O)N3Cc4c([nH]c5ccccc5c4=O)C3c3ccc4c(c3)OCO4)o2)cc1 (racemic)
Return: 1.92

Enquiry: Name the recorded IC50 of the compound listed here: Oc1c2c(nc3ccccc13)C(c1ccc3c(c1)OCO3)N(c1ncc(-c3cccnc3)cn1)C2 (racemic) [Compound 100]
Return: 0.52

Enquiry: Name the recorded IC50 of the compound listed here: Cc1ccc(-c2cnc(N3Cc4c([nH]c5ccccc5c4=O)C3c3ccc4c(c3)OCO4)nc2)cc1 (racemic)
Return: 0.325

Enquiry: Name the recorded IC50 of the compound listed here: COC(=O)c1ccc(-c2ccc(C(=O)N3Cc4c([nH]c5ccccc5c4=O)C3c3ccc4c(c3)OCO4)o2)cc1 (centres unmarked)
Return: 1.21

Enquiry: Name the recorded IC50 of the compound listed here: O=C(c1ccc(-c2cccc(C(F)(F)F)c2)o1)N1Cc2c([nH]c3ccccc3c2=O)C1c1ccc2c(c1)OCO2 (centres unmarked)
Return: 0.227

Enquiry: Name the recorded IC50 of the compound listed here: O=c1c2c([nH]c3ccccc13)C(c1ccc3c(c1)OCO3)N(c1ncc(Br)cn1)C2 (racemic)
Return: 4.48

Enquiry: Name the recorded IC50 of the compound listed here: Oc1c2c(nc3ccccc13)C(c1ccc3c(c1)OCO3)N(c1ncc(-c3cccnc3)cn1)C2 (racemic) [Compound 56]
Return: 1.24

Enquiry: Name the recorded IC50 of the compound listed here: COc1ccc(-c2cnc(N3Cc4c([nH]c5ccccc5c4=O)C3c3ccc4c(c3)OCO4)nc2)cc1OC (racemic)
Return: 0.165

Enquiry: Name the recorded IC50 of the compound listed here: `O=c1c2c([nH]c3ccccc13)[C@@H](c1ccc3c(c1)CCO3)N(Cc1ccccc1)C2`
Return: 62.7

Enquiry: Name the recorded IC50 of the compound listed here: O=c1c2c([nH]c3ccccc13)C(c1ccc3c(c1)OCO3)N(c1ncc(-c3ccncc3)cn1)C2 (racemic) [Compound 99]
Return: 0.84

Enquiry: Name the recorded IC50 of the compound listed here: O=C(c1ccc(-c2ccco2)o1)N1Cc2c(nc3ccccc3c2O)C1c1ccc2c(c1)OCO2 (racemic)
Return: 4.75

Enquiry: Name the recorded IC50 of the compound listed here: Oc1c2c(nc3ccccc13)C(c1ccc3c(c1)OCO3)N(c1ncccn1)C2 (racemic)
Return: 3.73

Enquiry: Name the recorded IC50 of the compound listed here: O=c1c2c([nH]c3ccccc13)C(c1ccc3c(c1)OCO3)N(Cc1ccccc1)C2 (racemic)
Return: 234

Enquiry: Name the recorded IC50 of the compound listed here: `COc1ccc(-c2cnc(N3Cc4c([nH]c5ccccc5c4=O)[C@H]3c3ccc4c(c3)CCO4)nc2)cc1`
Return: 0.19
